System: LPETG (Abz-LPETGK(Dnp)-CONH2)
Experiment: In vitro sortase kinetics HPLC assay, LPETG substrate
Assay type: biochemical
Details: substrate wt (LPETG); 10 mM GGG
METRIC_NAME: kcat, 10 mM GGG (Hz)

Solved cases below.
>>> result("2A.6A: 5mut + A104H K138V K162R I182V (protein) QAKPQIPKDKSKVAGYIEIPDADIKEPVYPGPATREQLNRGVSFHEENESLDDQNISIAGHTFIDRPNYQFTNLKAAKVGSMVYFKVGNETRKYKMTSIRNVRPTAVEVLDEQKGKDKQLTLVTCDDYNEETGVWETRKIFVATEVK")
"0.1572 Hz"
>>> result("4S.6C: 5mut + N98D A104V A118T F122A K134R I182V E189F (protein) QAKPQIPKDKSKVAGYIEIPDADIKEPVYPGPATREQLDRGVSFVEENESLDDQNISITGHTAIDRPNYQFTNLRAAKKGSMVYFKVGNETRKYKMTSIRNVKPTAVEVLDEQKGKDKQLTLVTCDDYNFETGVWETRKIFVATEVK")
"0.003663 Hz"

Proceeding to the next molecule to report its kcat, 10 mM GGG (Hz).
So what's the measured kcat, 10 mM GGG (Hz) for this one? eSrtA(4S-5): 5mut + N98D A104V A118T F122A K134R I182V (protein) QAKPQIPKDKSKVAGYIEIPDADIKEPVYPGPATREQLDRGVSFVEENESLDDQNISITGHTAIDRPNYQFTNLRAAKKGSMVYFKVGNETRKYKMTSIRNVKPTAVEVLDEQKGKDKQLTLVTCDDYNEETGVWETRKIFVATEVK
0.006149 Hz
